experiment_notes: cellular toxicity, reduction in cell growth
Type: cell-based, Green Monkey
stated_conditions: monkey, vero cells; Conc. 100 µM; after 48 h of incubation; read-out: Percent reduction in growth of Vero cells, determined as cell number
measured_quantity: inhibition at 48 h, 100 µM (%)

> print(dat)
                                   compound           measured.quantity  units  experimental.result
1  Nc1nc2c(ncn2CC(=O)CCO)c(=O)[nH]1 [VIS 590, 9-(2-oxo-4-hydroxybutyl)guanine]  inhibition at 48 h, 100 µM      %                    0

The origin of these recorded values is patent EP0103552B1.
